src = ChEMBL document CHEMBL4808200

assay: Unbound clearance in Wistar Han rat at 1 mg/kg, iv administered as 1 hr infusion or 3 mg/kg, po administered via gavage by LC-MS/MS analysis; assay type: ADME, organism-based; settings: in vivo
Reported Metric: CL free (mL/min/kg)
Respond numerically; units are mL/min/kg and should not be typed.

Lookup result for CNC(=O)c1cc(C(=O)N[C@H]2[C@@H]3COC[C@@H]32)cc(Cc2cccc3[nH]ccc23)n1 ; measured CL free: 206

The compound identified as CNC(=O)c1cc(C(=O)N[C@H]2[C@@H]3COC[C@@H]32)cc(C(OC)c2ccccc2)n1 (stereo not given in full) registered its CL free at 142

So for CNC(=O)c1cc(C(=O)N[C@H]2C[C@@H]2C)cc(Cc2cccc3[nH]ccc23)n1 , the logged CL free turned out to be 69

Per the records, this compound ( CNC(=O)c1cc(C(=O)NCCC[C@H]2OC[C@H](N)CO2)cc(Cc2ccccc2)n1 ) has CL free equal to 365

Entry CNC(=O)c1cc(C(=O)N[C@H]2C[C@@H]2C)cc([C@@H](O)c2ccccc2)n1 , CL free reported as 96

get_value(item= CNC(=O)c1cc(C(=O)N[C@H]2[C@@H]3COC[C@@H]32)cc(Cc2ccccc2)n1 , readout=CL free) returns 168

Form: compound = CNC(=O)c1cc(C(=O)NC2CC2)cc(Cc2ccccc2)n1 ; CL free = 343

For this compound ( CNC(=O)c1cc(C(=O)NC2CC2)cc(Cc2cccc3c2CCN3)n1.Cl ), measured CL free is 73

The recorded CL free for CNC(=O)c1cc(C(=O)N[C@H]2[C@@H]3COC[C@@H]32)cc([C@@H](C)c2ccccc2)n1 is 147

# CL free (compound: CNC(=O)c1cc(C(=O)N[C@H]2[C@@H]3C[C@@H](O)C[C@@H]32)cc(C(OC)c2ccccc2)n1 (stereo not given in full) ) is 95

###

assay: Volume of distribution at steady state in Beagle dog at 0.5 mg/kg, iv administered as 1 hr infusion on day 1 and day 7 to achieve a target dose of 1 mg/kg by LC-MS/MS analysis; assay type: ADME, organism-based, Canis lupus familiaris; settings: in vivo, dose 0.5-1 mg/kg, time 7 day, read-out: Vdss
Can you tell me Vd for the items I'm about to list?
Reply with just the number (in L/kg).

Vd reported for this compound CNC(=O)c1cc(C(=O)N[C@H]2[C@@H]3COC[C@@H]32)cc(C(OC)c2ccccc2)n1 (some centres not stated) : 0.9

In plain terms, CNC(=O)c1cc(C(=O)N[C@H]2C[C@@H]2C)cc([C@@H](O)c2ccccc2)n1 has a documented Vd of 2.1

Sure, the documented Vd for CNC(=O)c1cc(C(=O)N[C@H]2C[C@@H]2C)cc(Cc2cccc3[nH]ccc23)n1 is 1.6

Notebook: CNC(=O)c1cc(C(=O)N[C@H]2[C@@H]3COC[C@@H]32)cc(Cc2ccccc2)n1 , Vd read as 1.4

Sure, the documented Vd for CNC(=O)c1cc(C(=O)NCCC[C@H]2OC[C@H](N)CO2)cc(Cc2ccccc2)n1 is 2.4

Documented Vd of CNC(=O)c1cc(C(=O)N[C@H]2[C@@H]3COC[C@@H]32)cc([C@@H](C)c2ccccc2)n1 : 1.3

Note to self: Vd recorded for CNC(=O)c1cc(C(=O)N[C@H]2[C@@H]3COC[C@@H]32)cc(Cc2cccc3[nH]ccc23)n1 was 0.9
